# Tgt: canine FcRn complex (FcRn-alpha subunit and beta-microglobulin), His-tagged, biotin labeled (canine)
# Procedure Summary: SPR (Biacore), biotin-FcRn captured on SA surface, IgG flowed over, pH 6, 15 C
Measured Quantity: pKd
One number for each entry, as −log10 of the molar value.

canine IgGB (65) mAb with mutation D312S (antibody, part only; not given: variable domains of unnamed mAb, not shown: another chain or arm of the molecule) constant: ASTTAPSVFPLAPSCGSTSGSTVALACLVSGYFPEPVTVSWNSGSLTSGVHTFPSVLQSSGLYSLSSMVTVPSSRWPSETFTCNVAHPASKTKVDKPVPKRENGRVPRPPDCPKCPAPEMLGGPSVFIFPPKPKDTLLIARTPEVTCVVVDLDPEDPEVQISWFVDGKQMQTAKTQPREEQFNGTYRVVSVLPIGHQSWLKGKQFTCKVNNKALPSPIERTISKARGQAHQPSVYVLPPSREELSKNTVSLTCLIKDFFPPDIDVEWQSNGQQEPESKYRTTPPQLDEDGSYFLYSKLSVDKSRWQRGDTFICAVMHEALHNHYTQESLSHSPGK : 7.83

# next binder below
query: Provide only the value of recorded pKd for canine IgGB (65) mAb with mutation Q311C (antibody, part only; not given: Variable domains, not shown: another chain or arm of the molecule) constant: ASTTAPSVFPLAPSCGSTSGSTVALACLVSGYFPEPVTVSWNSGSLTSGVHTFPSVLQSSGLYSLSSMVTVPSSRWPSETFTCNVAHPASKTKVDKPVPKRENGRVPRPPDCPKCPAPEMLGGPSVFIFPPKPKDTLLIARTPEVTCVVVDLDPEDPEVQISWFVDGKQMQTAKTQPREEQFNGTYRVVSVLPIGHCDWLKGKQFTCKVNNKALPSPIERTISKARGQAHQPSVYVLPPSREELSKNTVSLTCLIKDFFPPDIDVEWQSNGQQEPESKYRTTPPQLDEDGSYFLYSKLSVDKSRWQRGDTFICAVMHEALHNHYTQESLSHSPGK
result: 7.99
